- system: human MRGPRD (Homo sapiens)
- Sequence (Q8TDS7 whole entry): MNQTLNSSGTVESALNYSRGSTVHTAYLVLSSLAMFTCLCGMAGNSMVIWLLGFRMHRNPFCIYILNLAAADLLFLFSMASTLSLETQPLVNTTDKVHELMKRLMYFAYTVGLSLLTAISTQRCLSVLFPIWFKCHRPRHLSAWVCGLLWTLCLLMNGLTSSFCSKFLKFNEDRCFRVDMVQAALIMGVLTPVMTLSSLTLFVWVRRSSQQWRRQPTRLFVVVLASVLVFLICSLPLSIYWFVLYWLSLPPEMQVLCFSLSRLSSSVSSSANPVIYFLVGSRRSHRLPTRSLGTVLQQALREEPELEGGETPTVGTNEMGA
- testSummary: MRGPRD antagonist activity, IP-One HTRF assay in CHO cells stably expressing human MRGPRD (versus 100 μM β-Alanine agonist)
propertyMeasured: IC50

compound="COc1ccc(C2(NC(=O)c3nnn(-c4ccc(-c5ccc(C(N)=O)cc5)cc4)c3C3CC3)CC2)cn1 [Compound 18-7]" obsvalue="1000 to 3000 nM"
compound="O=C(Nc1cnn(C(F)(F)F)c1)c1nnn(-c2ccc(-c3ccccc3)cc2)c1C1CC1 [Compound 14-80]" obsvalue="> 3000 nM"
compound="Cc1nn(-c2ccccc2)c(C)c1-c1ccc(-n2nnc(C(=O)N3Cc4cnn(C)c4C3)c2C2CC2)cc1 [Compound 9-29]" obsvalue="500 to 1000 nM"
compound="Cc1nn(C)c(C)c1-c1ccc(-n2nnc(C(=O)Nc3ccncc3)c2C2CC2)cc1OC(F)(F)F [Compound 7-335]" obsvalue="> 3000 nM"
compound="CCn1nc(C)c(-c2ccc(-n3nnc(C(=O)NCc4cccnc4C)c3C3CC3)cc2)c1C [Compound 9-5]" obsvalue="< 100 nM"

As a next step, examine the compound that follows.
Bench note, human MRGPRD (Homo sapiens): CCc1ccc(C2(NC(=O)c3nnn(-c4ccc(-c5ccc(C#N)cc5C)cc4)c3C3CC3)CC2)cn1 [Compound 9-17] , IC50 reads 100 to 500 nM

Origin of measurements: patent US20260001871A1
